Values from ChEMBL document CHEMBL1201862

system: COLO 205; assay: NCI tumour cell line growth inhibition, 48 h
Activity calls are given as the source filed them. Cut-off read from the data, not from the text of the source: active = GI50 up to about 1.1 µM and inactive = higher. Peptide text beside a SMILES is read from it. * marks the point of attachment. Boc = CC(C)(C)OC(=O)*; OBn = c1ccc(CO*)cc1
Listed here: items and their measured GI50.
MEASUREMENT TYPE: GI50

1) C=CCC(CC=O)(C(=O)OCC)C(=O)OCC ... > 100 µM (inactive)
2) Cc1cccc2c1CC(C1OC(=O)c3ccccc31)C2=O (stereo not given) ... > 100 µM (inactive)
3) COc1ccc(/C(=N\NC(=O)C(N)=O)C(c2ccc(OC)cc2)C2(O)C(=O)Nc3c(Cl)cccc32)cc1 (stereo not given) ... > 100 µM (inactive)
4) Nc1nc(Cl)cc(NCC2(CO)CC(Cc3ccccc3)C2)n1 (stereo not given) ... 29.8 µM (inactive)
5) c1coc(C2=Nc3cccc4cccc(c34)N2)c1 ... 14.8 µM (inactive)
6) COC(=O)C1=CCON(c2ccccc2)C1c1ccccc1 (stereo not given) ... 65.8 µM (inactive)
7) COC(=O)CC(NC(=O)OCc1ccccc1)C(C(=O)OCc1ccccc1)C(C)(OC)OC (stereo not given) ... 16.9 µM (inactive)
8) COc1cc(O)c2c(c1O)C(=O)c1cc(C)ncc1C2=O ... 20.3 µM (inactive)
9) CC(C)CC(NC(=O)OC(C)(C)C)C(=O)NC(CC(=O)OCc1ccccc1)C(N)=O (stereo not drawn) (Boc-Leu-Asp(OBn)-NH2; configuration not given here) ... > 100 µM (inactive)
10) N#Cc1c(-c2ccccc2)cc(Nc2ccc(F)cc2)n2c1nc1ccccc12 ... 1.58 µM (inactive)
